Hello, the source for this data is patent US12697330B2, in case you need it.

# RUN DESCRIPTION: Phase 1b study: pharmacokinetics of vadadustat and its metabolites in plasma of hemodialysis subjects with anemia associated with CKD
# Assay type: in vivo, human
# REPORTED CONDITIONS: human, plasma, oral; 600, 750, and 900 mg groups; Day 1 and Day 8, during the dialysis; read-out: median Tmax of vadadustat
MEASURED ATTRIBUTE: Tmax

Prompt line: For O=C(O)CNC(=O)c1ncc(-c2cccc(Cl)c2)cc1O , write its Tmax.
Response line: 2 to 3 h
